Measured values drawn from patent US12109207B2 for this set.

pIC50 for assorted compounds
- Test system: MDA-MB-231
- test details: Cell cytotoxicity assay (MTS), MDA-MB-231
- Format: cell-based
- measurement conditions: Homo sapiens, MDA-MB-231, 72 h
- Experimental: Cells were seeded into the wells of 96-well plates (2000 cells/well). After an overnight culture, the cells were treated with different concentrations of a compound for 72 h. The CellTiter 96 AQueous one-solution cell proliferation assay (MTS) reagent was used to determine cytotoxicity. […] Next, the absorbance at 490 nm of the culture medium in each well was determined using a VersaMax microplate reader (Molecular Devices).
pIC50: −log10 of the molar value.
readout label: pIC50

INSERT INTO measurements (smiles_record, assay_target, measurement) VALUES
  ('CC(C)OC(=O)c1ccc2[nH]c(-c3cccc(F)c3)cc(=O)c2c1', 'MDA-MB-231', 8.00),
  ('CCOC(=O)c1ccc2[nH]c(-c3cccc(F)c3)cc(=O)c2c1', 'MDA-MB-231', 7.46),
  ('CCOC(=O)c1ccc2[nH]c(-c3ccccc3)cc(=O)c2c1', 'MDA-MB-231', 7.26);
